assay: yeast display, Sf9 membrane polyspecificity reagent, FACS + sequencing; frameworks hold sequencing errors
Measurement Type: polyreactivity (PSR sort gate)

Known results for sequences:
- QVQLVESGGGLVQAGGSLRLSCAASGSIYDFYAMGWYRQAPGKERELVAAISWSGTSTYYADSVKGRFTISRDNAKNTVYLQMNSLKPEDTAVYYCAVVAGQSYFNRYDYWGQGTQVTVSS: low polyreactivity
- QLQLVESGGGLVQAGGSLRLRCAASGNTFYQYAMGWYIQAPGQQREMVAAISSGGRTNYADSVKGRFTISRDNAKNNVYLQMNSLKPEDTAVYYFAADVGYFKSDYWGQGTQVTVSS: low polyreactivity
- QVQHVESGGGLVQAGGSLRLSCAASGRTFYYNDMGWSRQAPGKERELVAAISWSGVSTSYADSVKGRFTISRDNAKNTVYLQMNSLKPEDTAVYYCAADNDGWYFHITEYDYWGQGTQVTVSS: low polyreactivity
- QVHLVESGGGLFQEGGSLRLSCAPSGSNFATYTMGWYRQAPGKERELVAAIRRSGGSTYYADSVKGRFTLSRDNAKNTVYLLMNSLKPEDTEVYYCAAKHYYYSPYVRYDPPPGYYWGQGTQVTVSS: high polyreactivity

# input for lookup
Looking up QVQLVESGGGLVQAGGSLRLSCAASGRTIYRYGMGWYRQAPGKERELVADITWRGDSTYYADSVKGRFTISRDNAKNTVYLQMNCLKPEDTAVYYCATRPRGYRWGKLYDYWGQGTQVTVSS , I found its polyreactivity (PSR sort gate) recorded as high polyreactivity

###

test: yeast display, Sf9 membrane polyspecificity reagent, FACS + sequencing; frameworks hold sequencing errors
Measurement Type: polyreactivity (PSR sort gate)

Known results for sequences:
- QVQLVESGVGLVQAGGTLRLSCAPSGSTFSVYAMGWYRQPPGKERELVADITRGGSTYADSVKGRFTISRDNAKITVYLQMNSLKPEDTAVYYCAGEEVTPYPLYWSTREYDYWGQGTQVTVSS: low polyreactivity
- QVQLVETEVGLDQAGGSLPLSCAASGYTFWAYAMGWYRQSPGKERELVAGISSRGSRTYYADSVKGRFTISRDNAKNTVYLQMNSLKPEDTAVYYCNALRTPPGYYPPFDYWGQGTQVTVSS: high polyreactivity
- QVQLVESGGGLVQAGGSLRLSFAASGITFSLYVMGWYRQAPGKERELVAAISYRGGTTYYADSVKGRFTISRDNAKNTVYLQMNSLKPEDTAVYYCAARGSRDRQEAEYGYWGQGTQVTVSS: high polyreactivity
- QVQLVESGGGLVQAGGSLRLSCAASGINFPRYMGWYRQAPGKERELVAAIRWSSDDTNYADSVKGRFTISRDNAKNTVYLQMNSLKPEDTAVYYCAADSYYDRTIQFEFSASTYDYWGQGTQVTVSS: low polyreactivity

Looking up QVQLVESGGGLVQAGGSLRLSCAASGITFYRYVMGWYRQAPGKERELVAAITSRGGSTSYADSVKGRFTISRDNAKNTVYLQMNSLKPEDTAVYNCAADLSGWGRDARGAYDYWGQGPQVTVSS , I found its polyreactivity (PSR sort gate) recorded as high polyreactivity

Looking up QVQLVESGGGLVQAGGSLRLSCAASGFTFTPYGMGWYRQAPGKERELVAAITWNGGRTYYADSVKGRFTISRDNAKNTVYLQMNSLKPEDTAVYYCAAVAWSWQKRGYWGQGTQVTVSS , I found its polyreactivity (PSR sort gate) recorded as high polyreactivity
